As shown below, each of these compounds has a reported T/C (%) D22 value.
System: human ovarian cancer SK-OV-3
Conditions: D22; 24 mg/kg (paclitaxel 16 mg/kg) D0-4 IV
I only need the number, in %, no unit after it.

{"columns": ["COMPOUND", "UNIT_NAME", "T/C (%) D22"],
 "data": [
  ["CC(=O)O[C@H]1C(=O)[C@@]2(C)[C@H]([C@H](OC(=O)c3ccccc3)[C@]3(O)C[C@H](OC(=O)[C@H](OC(=O)[C@H](F)CCN(C)C)[C@@H](NC(=O)c4ccccc4)c4ccccc4)C(C)=C1C3(C)C)[C@]1(OC(C)=O)CO[C@@H]1C[C@@H]2O.CS(=O)(=O)O", "%", "−63"],
  ["CCN(CC)CC[C@H](F)C(=O)O[C@@H](C(=O)O[C@H]1C[C@@]2(O)[C@@H](OC(=O)c3ccccc3)[C@@H]3[C@]4(OC(C)=O)CO[C@@H]4C[C@H](O)[C@@]3(C)C(=O)[C@H](OC(C)=O)C(=C1C)C2(C)C)[C@@H](NC(=O)c1ccccc1)c1ccccc1.O=C(O)/C=C/C(=O)O", "%", "−44"],
  ["CC(=O)O[C@H]1C(=O)[C@@]2(C)[C@H]([C@H](OC(=O)c3ccccc3)[C@]3(O)C[C@H](OC(=O)[C@H](OC(=O)[C@H](F)CCCN(C)C)[C@@H](NC(=O)c4ccccc4)c4ccccc4)C(C)=C1C3(C)C)[C@]1(OC(C)=O)CO[C@@H]1C[C@@H]2O.O=C(O)/C=C\\C(=O)O", "%", "−23"]
]}

Consider now this further compound.
Exercise: Which T/C (%) D22 reading was recorded for the compound CC(=O)O[C@H]1C(=O)[C@@]2(C)[C@H]([C@H](OC(=O)c3ccccc3)[C@]3(O)C[C@H](OC(=O)[C@H](O)[C@@H](NC(=O)c4ccccc4)c4ccccc4)C(C)=C1C3(C)C)[C@]1(OC(C)=O)CO[C@@H]1C[C@@H]2O [paclitaxel, reference compound] ?
Solution: −60

// provenance: patent US10239851B2
